assay: Quantitative high throughput screen to test cell viability of anti-malarial compounds targeting the delayed death phenotype; conditions: HepG2 viability, CellTiter-Glo luminescence, 48 h; series mostly up to 46.1 µM
Results filed as inconclusive are left out. Calls of active or inactive are those of the source. Calls follow the shape of the dose curve; as a rule, active = well fitted curve in the direction sought with a large enough effect; inconclusive = small, poorly fitted or top-dose-only effect, or effect the other way, or another doubt; inactive = no such curve, though single readings can be large or run the other way.

# test_smiles, outcome
data = [
    ("C[C@@H]1CN([C@@H](C)CO)C(=O)c2cc(NC(=O)Nc3ccccc3)ccc2O[C@@H](C)CCCCO[C@H]1CN(C)Cc1ccc(C(F)(F)F)cc1", "inactive"),
    ("C[C@@H]1CN([C@@H](C)CO)C(=O)c2cc(NC(=O)Nc3ccccc3)ccc2O[C@@H](C)CCCCO[C@H]1CN(C)S(=O)(=O)c1cccc(F)c1", "inactive"),
    ("C[C@@H]1CN([C@@H](C)COC(=O)C(C)(C)C)C(=O)c2cc(NC(=O)Nc3ccccc3)ccc2O[C@@H](C)CCCCO[C@H]1CN(C)S(=O)(=O)c1ccc(F)cc1", "inactive"),
]
